read-out: Urokinase-type plasminogen activator receptor (uPAR), PLAUR (gene 5329); experiment: BSK_4H_uPAR: BioMAP Diversity Plus: 4H Assay for Urokinase-type plasminogen activator receptor (uPAR) Biomarker Activity (AID 2283030); details: primary human endothelial cells (HUVEC); actives raise or lower the signal
Activity calls are given as the source filed them. The calls were made as follows: active = hit-call score of the fitted dose curve at least 0.9, where 1 is the maximum; inactive = score below 0.9.
measureName: AC50

CS(=O)(=O)OCCCCOS(C)(=O)=O    inactive
CN(c1nccc(=O)[nH]1)C1CCN(c2nc3ccccc3n2Cc2ccc(F)cc2)CC1    inactive
C[C@@H]1CCN(C(=O)[C@H](CCCN=C(N)N)NS(=O)(=O)c2cccc3c2NC[C@H](C)C3)[C@@H](C(=O)O)C1    inactive
O=C1c2ccccc2C(=O)c2c(O)ccc(O)c21    6.4 µM (active)

* * *

read-out: Interleukin 17A (IL17A), IL17A (gene 3605); experiment: BSK_BT_xIL17A: BioMAP Diversity Plus: BT Assay for Interleukin 17A (IL17A) Biomarker Activity (AID 2284229); conditions: primary human B cells with PBMC
Activity calls are given as the source filed them. Rule for the calls: active = hit-call score of the fitted dose curve at least 0.9, where 1 is the maximum; inactive = score below 0.9.
Give your call using only these classes: active, inactive

CS(=O)(=O)c1ccc(C2=C(c3ccccc3)C(=O)OC2)cc1    inactive
CC(=O)C1(C)CC2=C(CCCC2(C)C)CC1C (stereo unspecified)    active
COc1ccc(OC)c(N=Nc2c(O)ccc3ccccc23)c1    inactive
Clc1cc(Cl)c(-c2c(Cl)c(Cl)cc(Cl)c2Cl)cc1Cl    inactive
Cc1cc(CCC(=O)OCCOCCOCCOC(=O)CCc2cc(C)c(O)c(C(C)(C)C)c2)cc(C(C)(C)C)c1O    inactive
C=C(C)C(=O)OCCOCCOCCOC(=O)C(=C)C    inactive
C=C(C)C(=O)OCCOCCOCCOCCOC(=O)C(=C)C    inactive
CCN(CC)C(=O)N(CC)CC    inactive
CC(=O)Nc1ccc(C(=O)CCl)cc1    active
C=C(C)C(=O)OCC(CC)(COC(=O)C(=C)C)COC(=O)C(=C)C    inactive

In: Hi, do you know how IC(I)I came out in this test?
Out: inactive

* * *

assay: CEETOX_H295R_OHPROG: CeeTox H295R High-throughput Steroidogenesis Assay for OH-Progesterone (OHPROG) (AID 2283435); conditions: actives raise or lower the signal;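 also: human adrenal H295R cells primed 48 h with 10 µM forskolin; 17alpha-hydroxyprogesterone secreted into medium measured by HPLC-MS/MS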
The source made the active and inactive calls. The calls were made as follows: active = hit-call score of the fitted dose curve at least 0.9, where 1 is the maximum; inactive = score below 0.9.
Reported values of AC50 for individual entries

Cc1cc(=O)oc2cc(N(C)C)ccc12    50 µM (active)

Now for the compound whose AC50 we want.
In: Recorded AC50 of CC=Cc1ccc(OCC)c(O)c1 , please.
Out: 11 µM (active)

* * *

experiment: ATG_TAL_CIS: Attagene CIS-FACTORIAL HepG2 Assay for human TAL Basal Promoter (AID 2282966); settings: HepG2 Attagene cis-factorial TAL promoter reporter; actives raise or lower the signal;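 also: background control endpoint measuring basal TAL promoter reporter mRNA not a specific factor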
Calls of active or inactive are those of the source. How the source made its calls: active means hit-call score of the fitted dose curve at least 0.9, where 1 is the maximum; inactive means score below 0.9.
measureName: outcome

Consider the reported outcome for these molecules:
C1=CC2C3C=CC(C3)C2C1 (configuration not stated)    inactive
CCCCCCCCCCCCCCN(CCO)CCO    inactive
CC(C)CCCCCCCCCCCCCCC(=O)O    inactive
CN(c1nccc(=O)[nH]1)C1CCN(c2nc3ccccc3n2Cc2ccc(F)cc2)CC1    inactive
O=C(O)CCCCCCCCCCCC(=O)O    inactive
COc1ccccc1N=Nc1c(S(=O)(=O)O)cc2cc(S(=O)(=O)O)cc(NC(C)=O)c2c1O    inactive

In: Recorded outcome of CC1=NN(c2ccc(S(=O)(=O)O)cc2)C(=O)C1 , please.
Out: inactive

In: Recorded outcome of Cc1ccc(OC(=O)c2ccccc2O)cc1 , please.
Out: inactive

In: Recorded outcome of C#CC(C)N(C)C(=O)Nc1ccc(Cl)cc1 (configuration not stated) , please.
Out: inactive

In: Recorded outcome of CCCN(CCC)S(=O)(=O)c1ccc(C(=O)O)cc1 , please.
Out: inactive

In: Recorded outcome of CCCCCCCCCC(=O)OC , please.
Out: inactive

In: Recorded outcome of [Cl][Au]([Cl])[Cl] , please.
Out: inactive

In: Recorded outcome of COc1cc(CCC(C)=O)ccc1O , please.
Out: inactive

In: Recorded outcome of CCOc1ccc(N=Nc2ccc(C=Cc3ccc(N=Nc4ccc(OCC)cc4)cc3S(=O)(=O)O)c(S(=O)(=O)O)c2)cc1 , please.
Out: inactive

In: Recorded outcome of CS(=O)(=O)c1ccc(Cl)cc1 , please.
Out: inactive

In: Recorded outcome of COc1ccc(OC)c(N=Nc2c(O)ccc3ccccc23)c1 , please.
Out: inactive

* * *

Assay: ATG_PPRE_CIS: Attagene CIS-FACTORIAL HepG2 Assay for human Peroxisome Proliferator-activated Response Element (PPRE) (AID 2282958)
Settings: HepG2 PPRE cis-element reporter, Attagene transcription factor profiling; actives raise or lower the signal
Description: ATG_CIS is a cell-based, multiplexed-readout assay that uses HepG2, a human liver cell line, with measurements taken at 24 hours after chemical dosing in a 24-well plate.ATG_PPRE_CIS is one of 52 assay component(s) measured or calculated from the ATG_CIS assay. […] This assay endpoint, ATG_PPRE_CIS, was analyzed with bidirectional fitting relative to DMSO as the negative control and baseline of activity. […]
Calls of active or inactive are those of the source. The calls were made as follows: active = hit-call score of the fitted dose curve at least 0.9, where 1 is the maximum; inactive = score below 0.9.
Give your call using only these classes: true = active, false = inactive

Some solved entries appear below for comparison.
COc1ccc(OC)c(N=Nc2c(O)ccc3ccccc23)c1    false
CCCCCCC(C)Nc1ccc(Nc2ccccc2)cc1 (configuration not stated)    false
CC/C=C\CC/C=C/CO    false

In: Hi, do you know how NC1CCCCC1N (configuration not stated) came out in this test?
Out: false

In: Hi, do you know how COCCOC(=O)c1ccccc1C(=O)OCCOC came out in this test?
Out: false

In: Hi, do you know how CC1(C)COCN1 came out in this test?
Out: false

In: Hi, do you know how CCOC(=O)C1OC1c1ccccc1 (configuration not stated) came out in this test?
Out: true

In: Hi, do you know how ON=C1CCCCC1 came out in this test?
Out: false

In: Hi, do you know how COc1cc(Cl)c(OC)cc1N came out in this test?
Out: false

In: Hi, do you know how Nc1ccc2c(O)cc(S(=O)(=O)O)cc2c1 came out in this test?
Out: false

In: Hi, do you know how CCCCCCC(=O)c1ccccc1 came out in this test?
Out: false

In: Hi, do you know how CC(C)=CCCC(C)CCOC=O (configuration not stated) came out in this test?
Out: false

In: Hi, do you know how CS(=O)(=O)OCCCCOS(C)(=O)=O came out in this test?
Out: false

In: Hi, do you know how CCCCCCC(O)CCCCCCCCCCC(=O)O (configuration not stated) came out in this test?
Out: true

In: Hi, do you know how CCCC[P+](CCCC)(CCCC)CCCC came out in this test?
Out: false

In: Hi, do you know how CCN(CCC#N)c1ccc(N=Nc2ccc([N+](=O)[O-])cc2)cc1 came out in this test?
Out: false

In: Hi, do you know how c1ccc2cc(Nc3ccc(Nc4ccc5ccccc5c4)cc3)ccc2c1 came out in this test?
Out: false

In: Hi, do you know how CCCCCCCCCCCCN1CCCCCC1=O came out in this test?
Out: false

In: Hi, do you know how CCc1ncc(C)[nH]1 came out in this test?
Out: false

In: Hi, do you know how Cc1ccc(C)o1 came out in this test?
Out: false

In: Hi, do you know how Clc1cc(Cl)c(-c2c(Cl)c(Cl)cc(Cl)c2Cl)cc1Cl came out in this test?
Out: false

In: Hi, do you know how CC1(C)C2=CCCC(C)(C)[C@]23CC[C@H]1C3 came out in this test?
Out: false

In: Hi, do you know how CCCCCCCCSCCO came out in this test?
Out: false

In: Hi, do you know how CCOC(=O)C(C#N)=C(c1ccccc1)c1ccccc1 came out in this test?
Out: true

In: Hi, do you know how CCCCCCCCCC(=O)OC came out in this test?
Out: false

In: Hi, do you know how CS(=O)(=O)c1ccc(C2=C(c3ccccc3)C(=O)OC2)cc1 came out in this test?
Out: false

In: Hi, do you know how Cc1c(OCC(F)(F)F)ccnc1CS(=O)c1nc2ccccc2[nH]1 (configuration not stated) came out in this test?
Out: false

* * *

read-out: Plasminogen activator inhibitor-1 (PAI1), SERPINE1 (gene 5054); test: BSK_BE3C_PAI1: BioMAP Diversity Plus: BE3C Assay for Plasminogen activator inhibitor-1 (PAI1) Biomarker Activity (AID 2283037); conditions: primary human bronchial epithelial cells; actives raise or lower the signal
Calls of active or inactive are those of the source. The calls were made as follows: active = hit-call score of the fitted dose curve at least 0.9, where 1 is the maximum; inactive = score below 0.9.
Give your call using only these classes: t for active, f for inactive

CCCCOC(=O)CCCCCCCC(=O)OCCCC    f

In: Hi, do you know how CC(=O)C1(C)CC2=C(CCCC2(C)C)CC1C (centres undefined) came out in this test?
Out: t

In: Hi, do you know how IC(I)I came out in this test?
Out: f

In: Hi, do you know how O=CN1CCOCC1 came out in this test?
Out: f
